Provide the reported relative viability of each item.
# Test system: ABC-1
# assaySummary: relative viability (nuclei count vs DMSO), 5 days (fraction); higher = more cells survive
# assayContext: first compound 0.253 µM
One number for each entry.

molecule | relative viability
Oc1nc(-c2ccc(C(F)(F)F)cc2)nc2c1CSCC2 [XAV939] + N=C(N)NC(=N)NCCc1ccccc1 [Phenformin] (partner 250 µM) | 0.272

Provide reported relative viability for each item, in the same order as listed.
1. C=C1C(=O)O[C@@H](CCCCCCCC)[C@@H]1C(=O)O [C-75] + COc1cccc2cc(-c3nc([C@H]4CC[C@H](C(=O)O)CC4)n4ncnc(N)c34)[nH]c12 [OSI-027] (partner 0.5 µM)
2. C=C1C(=O)O[C@@H](CCCCCCCC)[C@@H]1C(=O)O [C-75] + CS(=O)(=O)CCNCc1ccc(-c2ccc3ncnc(Nc4ccc(OCc5cccc(F)c5)c(Cl)c4)c3c2)o1 [Lapatinib] (partner 2 µM)

[reply]
[0.587, 1.33]

Provide reported relative viability for each item, in the same order as listed.
1. C=C1C(=O)O[C@@H](CCCCCCCC)[C@@H]1C(=O)O [C-75] + Cc1nc(NC(=O)N2CCC[C@H]2C(N)=O)sc1-c1ccnc(C(C)(C)C(F)(F)F)c1 [Alpelisib] (partner 2 µM)
2. Oc1nc(-c2ccc(C(F)(F)F)cc2)nc2c1CSCC2 [XAV939] + C[C@@H](Oc1cc(-c2cnn(C3CCNCC3)c2)cnc1N)c1c(Cl)ccc(F)c1Cl [Crizotinib] (partner 1 µM)

[reply]
1.12
0.905

* * *

# Test system: HCC-366
# assaySummary: relative viability (nuclei count vs DMSO), 5 days (fraction); higher = more cells survive
# assayContext: first compound 0.03162 µM
Provide the reported relative viability of each item.
Answers are plain numbers.

molecule | relative viability
NC(=O)Nc1cc(-c2cccc(F)c2)sc1C(=O)N[C@H]1CCCNC1 [AZD7762] + C[C@]1(O)C[C@@H](c2nc(-c3ccc4ccc(-c5ccccc5)nc4c3)c3c(N)nccn32)C1 [Linsitinib] (partner 1 µM) | 0.666
NC(=O)Nc1cc(-c2cccc(F)c2)sc1C(=O)N[C@H]1CCCNC1 [AZD7762] + CC(=O)Nc1cccc(-n2c(=O)n(C3CC3)c(=O)c3c(Nc4ccc(I)cc4F)n(C)c(=O)c(C)c32)c1 [Trametinib] (partner 0.02 µM) | 0.329
NC(=O)Nc1cc(-c2cccc(F)c2)sc1C(=O)N[C@H]1CCCNC1 [AZD7762] + Nc1ncn([C@H]2C[C@H](O)[C@@H](CO)O2)c(=O)n1 [Decitabine] (partner 2 µM) | 0.407

Provide reported relative viability for each item, in the same order as listed.
1. NC(=O)Nc1cc(-c2cccc(F)c2)sc1C(=O)N[C@H]1CCCNC1 [AZD7762] + Cc1nc(NC(=O)N2CCC[C@H]2C(N)=O)sc1-c1ccnc(C(C)(C)C(F)(F)F)c1 [Alpelisib] (partner 2 µM)
2. NC(=O)Nc1cc(-c2cccc(F)c2)sc1C(=O)N[C@H]1CCCNC1 [AZD7762] + Cc1cc(Nc2cc(N3CCN(C)CC3)nc(Sc3ccc(NC(=O)C4CC4)cc3)n2)n[nH]1 [Tozasertib] (partner 0.1 µM)
3. NC(=O)Nc1cc(-c2cccc(F)c2)sc1C(=O)N[C@H]1CCCNC1 [AZD7762] + N=C(N)NC(=N)NCCc1ccccc1 [Phenformin] (partner 250 µM)

[reply]
1: 0.521; 2: 0.164; 3: 0.615

* * *

# Tested on: Calu-6
# assaySummary: relative viability (nuclei count vs DMSO), 5 days (fraction); higher = more cells survive
# assayContext: first compound 0.04 µM
outcomeMeasure: relative viability
One number for each entry.

molecule | relative viability
O=C(O)c1ccc(-c2c[nH]c3ncc(-c4ccccc4)cc23)cc1C1CCCC1 + CS(=O)(=O)CCNCc1ccc(-c2ccc3ncnc(Nc4ccc(OCc5cccc(F)c5)c(Cl)c4)c3c2)o1 [Lapatinib] (partner 2 µM) | 1.02
O=C(O)c1ccc(-c2c[nH]c3ncc(-c4ccccc4)cc23)cc1C1CCCC1 + CS(=O)(=O)N1CCN(Cc2cc3nc(-c4cccc5[nH]ncc45)nc(N4CCOCC4)c3s2)CC1 [Pictilisib] (partner 1 µM) | 0.896
O=C(O)c1ccc(-c2c[nH]c3ncc(-c4ccccc4)cc23)cc1C1CCCC1 + COc1cc2c(Oc3ccc(NC(=O)C4(C(=O)Nc5ccc(F)cc5)CC4)cc3F)ccnc2cc1OCCCN1CCOCC1 [Foretinib] (partner 0.25 µM) | 0.872

Below: the item to evaluate.
Reported relative viability ( O=C(O)c1ccc(-c2c[nH]c3ncc(-c4ccccc4)cc23)cc1C1CCCC1 + Cc1nc(NC(=O)N2CCC[C@H]2C(N)=O)sc1-c1ccnc(C(C)(C)C(F)(F)F)c1 [Alpelisib] (partner 2 µM) ) = 1.04

* * *

Provide the reported relative viability of each item.
# Test system: LOU-NH91
# assaySummary: relative viability (nuclei count vs DMSO), 5 days (fraction); higher = more cells survive
# assayContext: first compound 0.253 µM
Give bare numbers.

Look over these answered cases.
compound | targetOfAssay | outcomeMeasure | valueReported
Oc1nc(-c2ccc(C(F)(F)F)cc2)nc2c1CSCC2 [XAV939] + CS(=O)(=O)CCNCc1ccc(-c2ccc3ncnc(Nc4ccc(OCc5cccc(F)c5)c(Cl)c4)c3c2)o1 [Lapatinib] (partner 2 µM) | LOU-NH91 | relative viability | 0.695
C=C1C(=O)O[C@@H](CCCCCCCC)[C@@H]1C(=O)O [C-75] + O=C(CCCCCCC(=O)Nc1ccccc1)NO [Vorinostat] (partner 1 µM) | LOU-NH91 | relative viability | 0.939
C=C1C(=O)O[C@@H](CCCCCCCC)[C@@H]1C(=O)O [C-75] + Cc1cc(Nc2cc(N3CCN(C)CC3)nc(Sc3ccc(NC(=O)C4CC4)cc3)n2)n[nH]1 [Tozasertib] (partner 0.1 µM) | LOU-NH91 | relative viability | 0.561

Below: the item to evaluate.
Noted relative viability for Oc1nc(-c2ccc(C(F)(F)F)cc2)nc2c1CSCC2 [XAV939] + COc1cc2c(Oc3ccc(NC(=O)C4(C(=O)Nc5ccc(F)cc5)CC4)cc3F)ccnc2cc1OCCCN1CCOCC1 [Foretinib] (partner 0.25 µM) , tested on LOU-NH91: 0.918

* * *

Provide the reported relative viability of each item.
# Tested on: HCC-366
# assaySummary: relative viability (nuclei count vs DMSO), 5 days (fraction); higher = more cells survive
# assayContext: first compound 0.01 µM
One number for each entry.

Look over these answered cases.
molecule | targetOfAssay | relative viability
NC(=O)Nc1cc(-c2cccc(F)c2)sc1C(=O)N[C@H]1CCCNC1 [AZD7762] + C[C@@H](Oc1cc(-c2cnn(C3CCNCC3)c2)cnc1N)c1c(Cl)ccc(F)c1Cl [Crizotinib] (partner 1 µM) | HCC-366 | 0.678
NC(=O)Nc1cc(-c2cccc(F)c2)sc1C(=O)N[C@H]1CCCNC1 [AZD7762] + Cc1nc(Nc2ncc(C(=O)Nc3c(C)cccc3Cl)s2)cc(N2CCN(CCO)CC2)n1 [Dasatinib] (partner 0.075 µM) | HCC-366 | 0.707
NC(=O)Nc1cc(-c2cccc(F)c2)sc1C(=O)N[C@H]1CCCNC1 [AZD7762] + CC(=O)c1c(C)c2cnc(Nc3ccc(N4CCNCC4)cn3)nc2n(C2CCCC2)c1=O [Palbociclib] (partner 0.5 µM) | HCC-366 | 0.478
NC(=O)Nc1cc(-c2cccc(F)c2)sc1C(=O)N[C@H]1CCCNC1 [AZD7762] + O=C(c1cc(Cc2n[nH]c(=O)c3ccccc23)ccc1F)N1CCN(C(=O)C2CC2)CC1 [Olaparib] (partner 8 µM) | HCC-366 | 0.364
NC(=O)Nc1cc(-c2cccc(F)c2)sc1C(=O)N[C@H]1CCCNC1 [AZD7762] + Nc1nc2[nH]cc(CCc3ccc(C(=O)N[C@@H](CCC(=O)O)C(=O)O)cc3)c2c(=O)[nH]1 [Pemetrexed] (partner 0.2 µM) | HCC-366 | 0.195
NC(=O)Nc1cc(-c2cccc(F)c2)sc1C(=O)N[C@H]1CCCNC1 [AZD7762] + O=C(CCCCCCC(=O)Nc1ccccc1)NO [Vorinostat] (partner 1 µM) | HCC-366 | 0.455
NC(=O)Nc1cc(-c2cccc(F)c2)sc1C(=O)N[C@H]1CCCNC1 [AZD7762] + C[C@]1(O)C[C@@H](c2nc(-c3ccc4ccc(-c5ccccc5)nc4c3)c3c(N)nccn32)C1 [Linsitinib] (partner 1 µM) | HCC-366 | 0.587

Below: the item to evaluate.
Reported relative viability ( NC(=O)Nc1cc(-c2cccc(F)c2)sc1C(=O)N[C@H]1CCCNC1 [AZD7762] + CS(=O)(=O)CCNCc1ccc(-c2ccc3ncnc(Nc4ccc(OCc5cccc(F)c5)c(Cl)c4)c3c2)o1 [Lapatinib] (partner 2 µM) ) = 0.991
